Attribution: PubChem BioAssay AID743193

target system: Glyceraldehyde-3-phosphate dehydrogenase (Oryctolagus cuniculus)
assay protocol: Extended Characterization of HPGD Inhibitors: Counterscreen Against rGAPDH
assay setup: rabbit GAPDH/diaphorase coupled resazurin fluorescence; series mostly up to 57.1 µM
Inconclusive results are not listed. Activity calls are given as the source filed them. Calls follow the shape of the dose curve; as a rule, active = well fitted curve in the direction sought with a large enough effect; inconclusive = small, poorly fitted or top-dose-only effect, or another doubt; inactive = no such curve, though single readings can be large or run the other way.
value type: outcome

Cc1cc(-c2nnc3n2CCCCC3)c(C)n1-c1ccc(Cl)c(Cl)c1; inactive
Cc1cccc(-n2cnc3cc(C(=O)N4CCCC(C(F)(F)F)C4)ccc32)c1 (centres undefined); inactive
O=C(c1ccc2c(c1)ncn2-c1cccc(C(F)(F)F)c1)N1CCCCC1; inactive
Cc1cccc(-n2cnc3cc(C(=O)N4CCCC(C)(C)C4)ccc32)c1; inactive
